List of IC50 values.
Test system: Human immunodeficiency virus 1
Experiment: Antiviral activity against HIV1 harboring reverse transcriptase K103N/V108I double mutant infected in HEK293T cells transfected with plasmid VSV-G/pNL4-3.luc.R-E- assessed as inhibition of viral replication after 48 hrs by luciferase reporter gene assay
Type: functional, organism-based, HEK-293T
Settings: hek-293t

Compound: Cc1ccnc2c1NC(=O)c1cccnc1N2C1CC1 [NEVIRAPINE]
Unit: nM
IC50: 2800

Compound: O=C1Nc2ccc(Cl)cc2[C@@](C#CC2CC2)(C(F)(F)F)O1 [EFAVIRENZ]
Unit: nM
IC50: 83

###

Test: Retention time of the compound by HPLC analysis
Type: physicochemical
Recorded Retention_time by entry
Reported endpoint: Retention_time (min)

Smiles str: COc1ccc(CNc2nc(-c3ccccc3)c(Cc3ccccc3)s2)cc1
Obs value: 28.38
--
Smiles str: COc1ccc(-c2nc(NCc3ccc(O)c(OC)c3)sc2Cc2ccccc2)cc1
Obs value: 14.86
--
Smiles str: COc1ccc(-c2nc(NCc3ccc(N(C)C)cc3)sc2Cc2ccccc2)cc1
Obs value: 33.97
--
Smiles str: CCN(CC)c1nc(-c2ccc(O)cc2)c(Cc2ccccc2)s1
Obs value: 19.11
--
Smiles str: COc1ccc(-c2nc(NCc3ccccc3)sc2Cc2ccccc2)cc1
Obs value: 28.1
--
Smiles str: COc1ccc(CNc2nc(-c3ccc(F)cc3F)c(Cc3ccccc3)s2)cc1
Obs value: 17.37
--
Smiles str: COc1ccc(CNc2nc(-c3cc(OC)ccc3OC)c(Cc3ccccc3)s2)cc1
Obs value: 18.55
--
Smiles str: COc1ccc(-c2nc(/N=C/c3ccc(F)cc3)sc2Cc2ccccc2)cc1
Obs value: 14.58
--
Smiles str: COc1ccc(-c2nc(NCc3ccco3)sc2Cc2ccccc2)cc1
Obs value: 19.65
--
Smiles str: COc1ccc(-c2nc(NCc3ccc([N+](=O)[O-])cc3)sc2Cc2ccccc2)cc1
Obs value: 28.54
--
Smiles str: COc1ccc(CN(C)c2nc(-c3ccc(OC)cc3)c(Cc3ccccc3)s2)cc1
Obs value: 47.61
--
Smiles str: CCN(CC)c1nc(-c2ccc(OC)cc2)c(Cc2ccccc2)s1
Obs value: 29.77
